- system: endothelin receptor (membrane of smooth muscle tissue of porcine aorta) (Sus scrofa, UniProt Q29010)
- Construct: from tissue; host or cells: porcine aorta smooth muscle, membrane fraction
- Sequence (Q29010 21-427): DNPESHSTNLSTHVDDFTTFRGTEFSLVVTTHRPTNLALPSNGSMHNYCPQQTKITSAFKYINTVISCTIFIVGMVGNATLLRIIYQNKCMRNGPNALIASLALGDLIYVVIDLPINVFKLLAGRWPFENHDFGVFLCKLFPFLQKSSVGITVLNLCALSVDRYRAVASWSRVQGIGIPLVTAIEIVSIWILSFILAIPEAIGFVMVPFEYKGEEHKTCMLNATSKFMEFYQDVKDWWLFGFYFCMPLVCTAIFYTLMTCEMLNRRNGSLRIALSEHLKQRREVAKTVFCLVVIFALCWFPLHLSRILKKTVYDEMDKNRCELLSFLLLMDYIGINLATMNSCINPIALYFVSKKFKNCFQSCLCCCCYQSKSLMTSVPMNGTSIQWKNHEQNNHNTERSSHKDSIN
- assay summary: Endothelin binding inhibition test (125I-endothelin-1, porcine aorta smooth muscle membrane)
- test parameters: 1.1 μM test compound (no mark); read-out: 125I-endothelin-1 binding inhibition
Numbered stars: 1 amine (or outer) side, 2 acyl side, 3 side chain; on linkers, the order of the positions; unused ones are H or OH. Square brackets hold non-standard residues; d marks the D form. Peptide text beside a SMILES is read from it. * marks the point of attachment. CO = O=C([*:1])[*:2]; NHBn = c1ccc(CN*)cc1; βAla = NCCC(=O)O
readout: inhibition at 1.1 µM (%)
Return type: number; implicit unit %.

Study these solved cases before continuing.
1) CC(C)C[C@H](NC(=O)N(C)C(C)(C)C)C(=O)N[C@H](Cc1cn(C=O)c2ccccc12)C(=O)N[C@H](Cc1c[nH]c2ccccc12)C(=O)O [Compound 174]; 81
2) CC(C)C[C@@H](C(=O)N[C@H](Cc1c[nH]c2ccccc12)C(=O)N[C@H](Cc1c[nH]c2ccccc12)C(=O)O)N1C(=O)CN(C2CCCC2)C1=O [Compound 155]; 70
3) CNC(=O)CCNC(=O)[C@@H](Cc1c[nH]c2ccccc12)NC(=O)[C@H](CC(C)C)NC(=O)N1CCCCCC1 [Compound 134]; 32

Fill in the blank: the reported inhibition at 1.1 µM of CC(C)C[C@H](NC(=O)NCc1ccccc1)C(=O)N[C@H](Cc1c[nH]c2ccccc12)C(=O)NCCC(=O)O [Compound 115] ({NHBn-CO}-Leu-[dW]-[βAla]-OH) is ____. 33

Then CC(C)C[C@H](NC(=O)N1CCCCCC1)C(=O)N[C@H](Cc1cn(C=O)c2ccccc12)C(=O)NCCS(=O)(=O)O [Compound 161] ? 84

###

Measured inhibition at 1.1 µM by item
- system: endothelin receptor (membrane of smooth muscle tissue of porcine aorta) (Sus scrofa)
- Construct: from tissue; host or cells: porcine aorta smooth muscle, membrane fraction
- assay summary: Endothelin binding inhibition test (125I-endothelin-1, porcine aorta smooth muscle membrane)
- test parameters: 1.1 μM test compound (no mark); read-out: 125I-endothelin-1 binding inhibition
Give the number; % is assumed, so skip it.

Worked examples follow.
1. CC(C)C[C@H](NC(=O)N1CCCCCC1)C(=O)N[C@H](Cc1cn(C=O)c2ccccc12)C(=O)N[C@H](C)CC(=O)O [Compound 132]; 85
2. COC(=O)C[C@@H](C)NC(=O)[C@@H](Cc1c[nH]c2ccccc12)NC(=O)[C@H](CC(C)C)NC(=O)N1CCCCCC1 [Compound 51]; 68

Please give the measured inhibition at 1.1 µM for this compound: CC(C)C[C@H](NC(=O)N1CCCCCC1)C(=O)N[C@H](Cc1cn(C=O)c2ccccc12)C(=O)N[C@H](C)CS(=O)(=O)O [Compound 162] 86
